# TESTED_SYSTEM: HLA-A*0301 (human)
# PROTOCOL_DETAILS: competition with 125I-labelled standard peptide for purified HLA-A*0301, gel filtration
Exercise: state measured binding affinity ratio (IC50 of standard peptide / IC50 of test peptide) for each of the binders provided.
# output: bare number, no unit

The binder identified as NIHPAKDNR (modifications not checked) [… (HPV18 E1, position 574, 9 amino acids)] registered its binding affinity ratio (IC50 of standard peptide / IC50 of test peptide) at 0.0005

GET /value?item= LSLHEDEDK (modifications not checked) [HPV16 E1 620 …] &field=binding affinity ratio (IC50 of standard peptide / IC50 of test peptide) returns 0.0005

Record NSGQKKAKR (modifications not checked) [… (HPV18 E1, position 119, 9 amino acids)] , field binding affinity ratio (IC50 of standard peptide / IC50 of test peptide): 0.0005

For this binder ( RLKAICIEK (modifications not checked) [HPV16 E1 109 …] ), measured binding affinity ratio (IC50 of standard peptide / IC50 of test peptide) is 0.084

Looking up LVSMDVKHR (modifications not checked) [HPV16 E1 544 …] , I see its binding affinity ratio (IC50 of standard peptide / IC50 of test peptide) listed as 0.0005
